The origin of these recorded values is ChEMBL document CHEMBL1154819.

Test system: CCRF-CEM
protocol-description: Cytotoxicity against human CEM cells at 400 uM after 3 days by MTS assay
Assay type: cell-based
assay-conditions: 72 h
quantity-kind: Activity

>>> experimental_result("BP(=O)(O)CC[C@@H]1C=C[C@H](n2cc(C)c(=O)[nH]c2=O)O1")
"Non-toxic"
>>> experimental_result("Cc1cn([C@H]2C[C@H](N=[N+]=[N-])[C@@H](CC[PH](=O)O)O2)c(=O)[nH]c1=O")
"Non-toxic"
>>> experimental_result("Cc1cn([C@H]2C=C[C@@H](CC[PH](=O)O)O2)c(=O)[nH]c1=O")
"Non-toxic"
>>> experimental_result("BP(=O)(O)CC[C@H]1O[C@@H](n2cc(C)c(=O)[nH]c2=O)C[C@@H]1N=[N+]=[N-]")
"Non-toxic"

---

The following compounds are listed with their measured half-life values.
protocol-description: Stability in human CEM cells assessed as half life of degradation by HPLC
Format: ADME, cell-based
assay-conditions: CEM (CCRF-CEM) cells
quantity-kind: half-life (h)

>>> experimental_result("Cc1cn([C@H]2C=C[C@@H](CC[PH](=O)O)O2)c(=O)[nH]c1=O")
2
>>> experimental_result("BP(=O)(O)CC[C@@H]1C=C[C@H](n2cc(C)c(=O)[nH]c2=O)O1")
3

---

protocol-description: Chemical stability assessed as half life of degradation in PBS of pH 11.5 by HPLC
Assay type: physicochemical
quantity-kind: half-life

>>> experimental_result("BP(=O)(O)CC[C@@H]1C=C[C@H](n2cc(C)c(=O)[nH]c2=O)O1")
"> 48 h"
>>> experimental_result("Cc1cn([C@H]2C=C[C@@H](CC[PH](=O)O)O2)c(=O)[nH]c1=O")
"> 48 h"

---

System: HeLa
protocol-description: Cytotoxicity against human HeLa cells up to 200 uM after 3 days by MTS assay
Format: cell-based
assay-conditions: 72 h
quantity-kind: Activity

>>> experimental_result("BP(=O)(O)CC[C@@H]1C=C[C@H](n2cc(C)c(=O)[nH]c2=O)O1")
"Non-toxic"
>>> experimental_result("BP(=O)(O)CC[C@H]1O[C@@H](n2cc(C)c(=O)[nH]c2=O)C[C@@H]1N=[N+]=[N-]")
"Non-toxic"
>>> experimental_result("Cc1cn([C@H]2C=C[C@@H](CC[PH](=O)O)O2)c(=O)[nH]c1=O")
"Non-toxic"
>>> experimental_result("Cc1cn([C@H]2C[C@H](N=[N+]=[N-])[C@@H](CC[PH](=O)O)O2)c(=O)[nH]c1=O")
"Non-toxic"

---

protocol-description: Chemical stability assessed as half life of degradation in PBS of pH 7.3 by HPLC
Type: physicochemical
The following molecules are listed with their measured half-life values.
quantity-kind: half-life

>>> experimental_result("BP(=O)(O)CC[C@@H]1C=C[C@H](n2cc(C)c(=O)[nH]c2=O)O1")
"22 h"
>>> experimental_result("Cc1cn([C@H]2C=C[C@@H](CC[PH](=O)O)O2)c(=O)[nH]c1=O")
"> 48 h"
